Parameter: PBMCs, anti-mFc 647 CD4+ gate - RL1 Binding. Scope: all listed entries.
# studySystem: T1, human CD4 on cells (SKW3 cells; human PBMCs) (human, UniProt P01730 26-458)
# T1 construct: whole, on cells; SKW3 CD4 knockout cells served as the negative cell line; also called hCD4
# assayComment: FACS confirmation, supernatant on human PBMCs, anti-mouse Fc 647, CD4+ gate
// no unit string in output, number only

{"binder": "75110_01D24A (antibody, V domains shown, Tested as non-clonal AlivaMab Mouse Kappa hybridoma supernatant: human variable domains and human kappa, mouse Fc) VH: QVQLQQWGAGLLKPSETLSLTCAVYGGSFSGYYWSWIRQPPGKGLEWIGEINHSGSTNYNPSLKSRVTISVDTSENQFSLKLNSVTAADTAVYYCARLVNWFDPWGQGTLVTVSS VL: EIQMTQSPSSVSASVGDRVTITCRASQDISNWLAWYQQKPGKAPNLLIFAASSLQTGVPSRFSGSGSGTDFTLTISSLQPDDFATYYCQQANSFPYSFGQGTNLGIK", "reportedValue": 257000}
{"binder": "75110_13P22A (antibody, IgG1, V domains shown, Tested as non-clonal AlivaMab Mouse Kappa hybridoma supernatant: human variable domains and human kappa, mouse Fc) VH: QVQLQQWGAGLLKPSETLSLTCAAYGGSFSGYYWSWIRQSPGKGLEWIGEINQSGNTNYNPSLKSRVTISADTSKNQFSLKLSSVTAADTAVYYCARVLNWFDYWGQGILVTVSS VL: DIQMTQSPSSVSASVGDRVTITCRASQGISDWLAWYQQKSGKAPDLLIFAASSLQSGVPSRFSGSGSGTDFTLTISSLQPEDFATYYCQQANSFPYTFGQGTKLEIK", "reportedValue": 215000}
{"binder": "75110_01G11A (antibody, IgG1, V domains shown, Tested as non-clonal AlivaMab Mouse Kappa hybridoma supernatant: human variable domains and human kappa, mouse Fc) VH: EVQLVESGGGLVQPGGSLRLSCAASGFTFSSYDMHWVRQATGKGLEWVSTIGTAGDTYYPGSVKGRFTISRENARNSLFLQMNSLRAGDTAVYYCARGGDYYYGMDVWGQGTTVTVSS VL: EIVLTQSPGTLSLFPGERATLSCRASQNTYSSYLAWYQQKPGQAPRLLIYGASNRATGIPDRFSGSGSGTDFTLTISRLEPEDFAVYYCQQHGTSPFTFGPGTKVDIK", "reportedValue": 244000}

The reported PBMCs, anti-mFc 647 CD4+ gate - RL1 Binding of the binder 75110_13C13A (antibody, IgG1, V domains shown, Tested as non-clonal AlivaMab Mouse Kappa hybridoma supernatant: human variable domains and human kappa, mouse Fc) VH: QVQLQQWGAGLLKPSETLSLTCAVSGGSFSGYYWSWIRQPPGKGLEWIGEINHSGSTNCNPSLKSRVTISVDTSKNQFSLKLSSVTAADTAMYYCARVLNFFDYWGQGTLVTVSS VL: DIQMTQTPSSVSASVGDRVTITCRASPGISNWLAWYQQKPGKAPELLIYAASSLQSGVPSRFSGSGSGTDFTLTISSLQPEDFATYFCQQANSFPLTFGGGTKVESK was 99600

The reported PBMCs, anti-mFc 647 CD4+ gate - RL1 Binding of the binder 75110_13P21A (antibody, IgG1, V domains shown, Tested as non-clonal AlivaMab Mouse Kappa hybridoma supernatant: human variable domains and human kappa, mouse Fc) VH: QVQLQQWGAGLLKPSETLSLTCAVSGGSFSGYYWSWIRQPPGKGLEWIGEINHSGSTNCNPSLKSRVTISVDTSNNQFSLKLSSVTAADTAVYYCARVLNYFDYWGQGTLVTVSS VL: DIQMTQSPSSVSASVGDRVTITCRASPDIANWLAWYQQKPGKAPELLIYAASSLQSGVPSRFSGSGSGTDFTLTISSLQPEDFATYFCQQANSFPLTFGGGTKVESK was 274000

The reported PBMCs, anti-mFc 647 CD4+ gate - RL1 Binding of the binder 75110_01J17A (antibody, IgG1, V domains shown, Tested as non-clonal AlivaMab Mouse Kappa hybridoma supernatant: human variable domains and human kappa, mouse Fc) VH: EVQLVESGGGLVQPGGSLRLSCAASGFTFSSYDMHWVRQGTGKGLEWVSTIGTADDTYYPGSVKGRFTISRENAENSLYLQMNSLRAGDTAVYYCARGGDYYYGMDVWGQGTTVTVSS VL: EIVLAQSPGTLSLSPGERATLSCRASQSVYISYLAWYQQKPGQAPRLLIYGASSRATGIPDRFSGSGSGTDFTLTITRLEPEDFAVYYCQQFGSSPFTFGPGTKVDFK was 280000
